- System: M. mycetomatis genome strain MM55
- ASSAY_PROTOCOL: CLSI M38-A2 based in vitro susceptibility screening (XTT or resazurin), growth at fixed concentration
- Assay type: cell-based, Madurella mycetomatis
- MEASUREMENT_CONDITIONS: Madurella mycetomatis, 25 uM, replicate A; read-out: Percentage survival at 25um, 25 um A
MEASUREMENT_KIND: activity at 25 µM (%)
Write the value in % as a bare number.

Below, 4 molecules whose answers are already recorded.
MOLECULE	NUMERIC_VALUE
Cc1c(OCC(F)(F)F)ccnc1C[S+]([O-])c1nc2ccccc2[nH]1 (centres unmarked)	79.3
CCc1ccc(C2CC(C(F)(F)F)n3ncc(C(=O)NCc4ccc(OC)cc4)c3N2)cc1 (centres unmarked)	65
O=C(NC(=O)N1CCCc2ccccc21)c1ccc(Cl)cc1Cl	84.5
FC(F)(F)Oc1ccc(Nc2ccc3cccc(Cl)c3n2)cc1	-12.4

Could you now consider this next molecule?
Data request: Entry `C=CCc1cc(Cc2cnc(N)nc2N)cc(OC)c1O` needs its activity at 25 µM filled in; supply it.
Data returned: 100

----------
The reader will find reported activity at 100 µM values listed item by item below.
- Tested on: M. mycetomatis genome strain MM55
- ASSAY_PROTOCOL: CLSI M38-A2 based in vitro susceptibility screening (XTT or resazurin), growth at fixed concentration
- Type: cell-based, Madurella mycetomatis
- MEASUREMENT_CONDITIONS: Madurella mycetomatis, 100 uM, mean; read-out: Percentage survival at 100um, 100 uM mean
Write the value in % as a bare number.

Below, 5 compounds whose answers are already recorded.
COMPOUND	activity at 100 µM / %
CNc1nc(=O)[nH]cc1F	93.4
CCCCc1ccc(S(=O)(=O)Nc2cc(C)on2)cc1	82.9
O=C(CP(=O)(O)O)NCCc1cccc(Oc2ccccc2)c1	46.3
O=C(O)c1ccccc1Sc1ncnc2sc3c(c12)CCC3	57
CC(Oc1ccc(Cl)cc1Cl)C(=O)NCc1ccc2c(c1)OCO2 (stereo not drawn)	70.2

Data request: Entry Clc1cc(Cl)c2c(c1)CCc1ccccc1C2n1ccnc1 (stereo not drawn) [MMV1634492, Eberconazole, reference compound] needs its activity at 100 µM filled in; supply it.
Data returned: 3.3

Data request: Entry O=c1ccc2ncc(=O)n3c2n1CC3CN1CCC(NCc2cc3c(cn2)OCCC3)CC1 (stereo not drawn) needs its activity at 100 µM filled in; supply it.
Data returned: 63.3

Data request: Entry `COC(=O)Nc1nc2ccc(Sc3ccccc3)cc2[nH]1` needs its activity at 100 µM filled in; supply it.
Data returned: 7.16

Data request: Entry `COc1ccc2c(c1)cc(CNC(=O)c1cc3ccccc3o1)n2CC(=O)O` needs its activity at 100 µM filled in; supply it.
Data returned: 88.6

----------
- System: M. mycetomatis genome strain MM55
- ASSAY_PROTOCOL: CLSI M38-A2 based in vitro susceptibility screening (XTT or resazurin), growth at fixed concentration
- Type: cell-based, Madurella mycetomatis
- MEASUREMENT_CONDITIONS: Madurella mycetomatis, 100 uM, mean of three replicates; read-out: Percentage survival at 100um, 100 uM mean
MEASUREMENT_KIND: activity at 100 µM (%)
Write the value in % as a bare number.

Data request: Entry C[C@H](NC(CC(=O)c1ccccc1C(F)(F)F)C(=O)O)c1ccccc1 (stereo partly drawn) needs its activity at 100 µM filled in; supply it.
Data returned: 87.3

Data request: Entry `CC(C)N(c1cc(-c2ccccc2)sc1C(=O)O)C(=O)[C@H]1CC[C@H](C)CC1` needs its activity at 100 µM filled in; supply it.
Data returned: 76.1

Data request: Entry `Nc1c(C(=O)NCc2ccco2)c2nc3ccccc3nc2n1CCN1CCCCC1` needs its activity at 100 µM filled in; supply it.
Data returned: 3.55

Data request: Entry `NC(=O)c1ccc(I)c([N+](=O)[O-])c1` needs its activity at 100 µM filled in; supply it.
Data returned: 90.1

Data request: Entry `Cc1[nH]c2ccccc2c1CCNCc1ccc(/C=C/C(=O)NO)cc1` needs its activity at 100 µM filled in; supply it.
Data returned: 77.1

Data request: Entry COc1ccc2sc3c(c2c1)NC(C)CNC3=O (stereo not drawn) needs its activity at 100 µM filled in; supply it.
Data returned: -0.834

Data request: Entry `COc1ccc(NC(=O)c2cc3ccccn3n2)cc1` needs its activity at 100 µM filled in; supply it.
Data returned: 65.8

Data request: Entry CC(C)(C)NC(=O)N[C@H](C(=O)N1C[C@H]2[C@@H]([C@H]1C(=O)NC(CC1CCC1)C(=O)C(N)=O)C2(C)C)C(C)(C)C (stereo partly drawn) needs its activity at 100 µM filled in; supply it.
Data returned: 93.6

Data request: Entry `FC(F)(F)Oc1ccc(Nc2ccc3cccc(Cl)c3n2)cc1` needs its activity at 100 µM filled in; supply it.
Data returned: 0.711

----------
The reader will find reported activity at 100 µM values listed item by item below.
- Tested on: M. mycetomatis genome strain MM55
- ASSAY_PROTOCOL: CLSI M38-A2 based in vitro susceptibility screening (XTT or resazurin), growth at fixed concentration
- Format: cell-based, Madurella mycetomatis
- MEASUREMENT_CONDITIONS: Madurella mycetomatis, 100 uM, replicate 3, MM55; read-out: Percentage survival at 100um, 100 uM A
Write the value in % as a bare number.

COMPOUND	activity at 100 µM (%)
C=CCN(C(=O)OCc1ccc([N+](=O)[O-])cc1)C1CCN(CC[C@](C)(CN(C)S(=O)(=O)c2ccccc2)c2ccccc2)CC1	53.4

Data request: Entry `O=C(Nc1ccc(N2CCN(C(=O)c3ccccc3)CC2)cc1)c1ccc2c(c1)OCO2` needs its activity at 100 µM filled in; supply it.
Data returned: 91.4

Data request: Entry CCCC1(C2CC2)c2cc(Cl)ccc2NC(=O)N1C (centres unmarked) needs its activity at 100 µM filled in; supply it.
Data returned: 58.9

Data request: Entry `O=C(O)CSc1cc(NS(=O)(=O)c2cccc3cccnc23)c2ccccc2c1O` needs its activity at 100 µM filled in; supply it.
Data returned: 102

Data request: Entry `CC[C@@]1(O)C(=O)OCc2c1cc1n(c2=O)Cc2cc3c([N+](=O)[O-])cccc3nc2-1` needs its activity at 100 µM filled in; supply it.
Data returned: 78.6

----------
The reader will find reported activity at 100 µM values listed item by item below.
- System: M. mycetomatis genome strain MM55
- ASSAY_PROTOCOL: CLSI M38-A2 based in vitro susceptibility screening (XTT or resazurin), growth at fixed concentration
- Type: cell-based, Madurella mycetomatis
- MEASUREMENT_CONDITIONS: Madurella mycetomatis, 100 uM, replicate 3; read-out: Percentage survival at 100um, 100 uM A (third replicate column)
Write the value in % as a bare number.

COMPOUND	RESULT_UNITS	NUMERIC_VALUE
CCOC(=O)N[C@@H]1CC[C@@H]2[C@@H](C1)C[C@H]1C(=O)O[C@H](C)[C@H]1[C@H]2/C=C/c1ccc(-c2cccc(F)c2)cn1 [MMV1593515]	%	82
COc1cc(Cc2cnc(N)nc2N)c2c(c1OC)OC(C1CC1)C=C2 (stereo not shown) [MMV1613563]	%	87.7

Data request: Entry O=C(Cn1cnc2ccccc2c1=O)Nc1ccccc1 [MMV1578891] needs its activity at 100 µM filled in; supply it.
Data returned: 81.6

Data request: Entry Oc1ccc(NCc2ccccc2OCc2ccccc2)cc1 [MMV1580504] needs its activity at 100 µM filled in; supply it.
Data returned: 17.3

----------
- System: M. mycetomatis genome strain MM55
- ASSAY_PROTOCOL: CLSI M38-A2 based in vitro susceptibility screening (XTT or resazurin), growth at fixed concentration
- Assay type: cell-based, Madurella mycetomatis
- MEASUREMENT_CONDITIONS: Madurella mycetomatis, 25 uM, replicate A; read-out: Percentage survival at 25um, 25 um A
MEASUREMENT_KIND: activity at 25 µM (%)
Write the value in % as a bare number.

COMPOUND	RESULT_UNITS	activity at 25 µM
C[C@H]1CC[C@]2(NC1)O[C@H]1C[C@H]3[C@@H]4CC[C@H]5C[C@@H](O)CC[C@]5(C)[C@H]4CC[C@]3(C)[C@H]1[C@@H]2C	%	98.3
O=C(/C=C/n1cnc(-c2cc(C(F)(F)F)cc(C(F)(F)F)c2)n1)NNc1cnccn1	%	63
CC(C)c1cc2c(cc1S(=O)(=O)O)[C@@]1(C)CCC[C@@](C)(C(=O)O)[C@@H]1CC2	%	73.4

Could you now consider this next compound?
Data request: Entry CC[N+]1(C/C2=C/CCCCCC2)CCC(NC(=O)C2c3cc(Cl)ccc3Oc3ccc(Cl)cc32)CC1 (stereo not shown) needs its activity at 25 µM filled in; supply it.
Data returned: 90.3
